Documented IC50 across a set of compounds
Biological target: NAMPT (human, recombinant, C-terminally His-tagged) (Homo sapiens, UniProt P43490)
Sequence (P43490 whole entry): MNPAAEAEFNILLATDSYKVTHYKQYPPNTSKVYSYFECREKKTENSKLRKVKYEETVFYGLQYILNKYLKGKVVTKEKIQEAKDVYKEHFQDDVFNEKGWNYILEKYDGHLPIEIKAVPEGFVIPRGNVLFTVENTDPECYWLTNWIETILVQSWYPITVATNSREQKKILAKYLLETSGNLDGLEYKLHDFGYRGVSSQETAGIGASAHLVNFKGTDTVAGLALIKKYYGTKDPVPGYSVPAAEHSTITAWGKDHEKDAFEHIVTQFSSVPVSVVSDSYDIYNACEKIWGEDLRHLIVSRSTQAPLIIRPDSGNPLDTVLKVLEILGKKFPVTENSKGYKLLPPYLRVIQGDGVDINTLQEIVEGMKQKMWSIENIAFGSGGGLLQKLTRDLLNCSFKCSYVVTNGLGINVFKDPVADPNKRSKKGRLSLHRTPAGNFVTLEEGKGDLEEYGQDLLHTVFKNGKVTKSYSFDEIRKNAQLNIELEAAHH
Assay: Time-Resolved Fluorescence Resonance Energy Transfer (TR-FRET) Binding Assay of NAMPT
Details: 6.8 nM NAMPT, 200 nM probe, equilibrated 3 hours, absence of substrates

What value of IC50 has been recorded for this entry: O=C(Nc1ccc(C2CCN(C(=O)c3cccc(C(F)(F)F)c3)CC2)cc1)C1CN(c2cccnn2)C1
82.8 nM

Entry COc1cccc(C(=O)N2CCC(c3ccc(NC(=O)C4CN(c5cccnn5)C4)cc3)CC2)c1 : reported IC50 = ?
30.8 nM

IC50 for CCC(=O)N1CCC(Oc2ccc(NC(=O)C3CN(c4cccnc4)C3)cc2)CC1 ?
121 nM

More entries:
Entry under review: O=C(Nc1ccc(C2CCN(CC3CCCCC3)CC2)cc1)C1CN(c2cccnc2)C1 . Reported IC50?
1260 nM

====

Target: NAMPT (human, recombinant, C-terminally His-tagged) (Homo sapiens, UniProt P43490)
Test: Time-Resolved Fluorescence Resonance Energy Transfer (TR-FRET) Binding Assay of NAMPT
Conditions: 6.8 nM NAMPT, 200 nM probe, equilibrated 3 hours, absence of substrates
Method: Determination of the utility of compounds having Formula (I) as binders to and inhibitors of NAMPT was performed using Time-Resolved Fluorescence Resonance Energy Transfer (TR-FRET) binding assays. Time-Resolved Fluorescence Resonance Energy Transfer (TR-FRET) Binding Assay of NAMPT […]
Response field label takes class 1 when IC50 is strictly below 80 nM and class 0 in all other cases.

Criterion: IC50 strictly below 80 nM. Is it met by O=C(Nc1ccc(OC2CCN(C(=O)c3ccc(OC(F)(F)F)cc3)CC2)cc1)C1CN(c2cccnn2)C1 ?
class 0

Please let me know if CC1(C(=O)N2CCC(Oc3ccc(NC(=O)C4CN(c5cccnc5)C4)cc3)CC2)CCCCC1 shows IC50 below 80 nM.
class 1

# strict comparison: is reported IC50 < 80 nM? input = O=C(Nc1ccc(C2CCN(C(=O)C3CCOCC3)CC2)cc1)C1CN(c2ccnnc2)C1
class 1

Is IC50 strictly under 80 nM for the entry O=C(Nc1ccc(C2CCN(C(=O)Cc3cc(F)cc(F)c3)CC2)cc1)C1CN(c2cccnn2)C1 ?
class 1

Is the reported IC50 for O=C(Nc1ccc(C2CCN(C(=O)CC[N+](=O)[O-])CC2)cc1)C1CN(c2cccnn2)C1 strictly below 80 nM?
class 1

More entries:
Please indicate whether the reported IC50 of O=C(Nc1ccc(OC2CCN(C(=O)CC(F)(F)F)CC2)cc1)C1CN(c2cccnc2)C1 is strictly below 80 nM.
class 0

Input O=C(Nc1ccc(OC2CCN(C(=O)C3CCOCC3)CC2)cc1)C1CN(c2cccnn2)C1 ; condition: IC50 strictly below 80 nM. Does it hold?
class 0

Please indicate whether the reported IC50 of CC(C)(C)OC(=O)N1CCC(Oc2ccc(NC(=O)[C@H]3CCN(c4cccnc4)C3)cc2)CC1 is strictly below 80 nM.
class 0

====

Target: NAMPT (human, recombinant, C-terminally His-tagged) (Homo sapiens)
Assay: Time-Resolved Fluorescence Resonance Energy Transfer (TR-FRET) Binding Assay of NAMPT
Details: 6.8 nM NAMPT, 200 nM probe, equilibrated 3 hours, absence of substrates
Reported endpoint: IC50 (nM)
# output: bare number, implied unit nM

Take a look at these entries with their results.
# lookup: IC50 of Cc1ncccc1N1CC(C(=O)Nc2ccc(C3CCN(C(=O)c4ccsc4)CC3)cc2)C1
33.7

Sample CCCCC(=O)N1CC(Oc2ccc(NC(=O)C3CN(c4ccnnc4)C3)cc2)C1 — what was its IC50?
31.7

Item CCC(C)CC(=O)N1CCC(Oc2ccc(NC(=O)C3CN(c4cccnc4)C3)cc2)CC1 (stereo not shown) has what recorded IC50?
46.5

Using the record for O=C(Nc1ccc(OC2CCN(C(=O)Cc3cccc(C(F)(F)F)c3)CC2)cc1)C1CN(c2cccnn2)C1 , report its IC50.
192

Reported IC50 for CC(C)C(C)C(=O)N1CCC(c2ccc(NC(=O)C3CN(c4cccnn4)C3)cc2)CC1 (stereo not shown) : what is it?
18.3

---
Can you share its IC50? I mean this molecule: CC(C)(C)CC(=O)N1CCC(c2ccc(NC(=O)C3CN(c4cccnc4)C3)cc2)CC1
8.46

# IC50 lookup, item O=C(Nc1ccc(OC2CCN(C(=O)Cc3cc(F)cc(F)c3)CC2)cc1)C1CN(c2cccnn2)C1
112

====

Molecular target: NAMPT (human, recombinant, C-terminally His-tagged) (Homo sapiens)
Assay: Time-Resolved Fluorescence Resonance Energy Transfer (TR-FRET) Binding Assay of NAMPT
Conditions: 6.8 nM NAMPT, 200 nM probe, equilibrated 3 hours, absence of substrates
Protocol: Determination of the utility of compounds having Formula (I) as binders to and inhibitors of NAMPT was performed using Time-Resolved Fluorescence Resonance Energy Transfer (TR-FRET) binding assays. Time-Resolved Fluorescence Resonance Energy Transfer (TR-FRET) Binding Assay of NAMPT […]
# IC50 values compiled below
Record the value in nM, omitting the unit from your answer.

Record request: IC50 value, item O=C(Nc1ccc(C2CCN(C(=O)C3CCCC3)CC2)cc1)C1CN(c2cccnc2)C1
21.8

Field request: IC50 | item: O=C(Nc1ccc(C2CCN(C(=O)[C@@H]3CCCO3)CC2)cc1)C1CN(c2cccnc2)C1
34.5

For CC(C)(O)C(=O)N1CCC(Oc2ccc(NC(=O)[C@H]3CCN(c4cccnc4)C3)cc2)CC1 , what is its reported IC50?
3510

Looking for the measured IC50 of CC1(C(=O)N2CCC(Oc3ccc(NC(=O)C4CN(c5cccnc5)C4)cc3)CC2)CC1 , can you help?
56.6

Entry under review: C=CCCC(=O)N1CCC(c2ccc(NC(=O)C3CN(c4cccnn4)C3)cc2)CC1 . Reported IC50?
24.9

Continuing:
Entry O=C(Nc1ccc(OC2CCN(C(=O)[C@@H]3CCCO3)CC2)cc1)[C@H]1CCN(c2cccnc2)C1 : reported IC50 = ?
858

// returns reported IC50 for input CC(C)(C)CC(=O)N1CCC(c2ccc(NC(=O)C3CN(c4cccnn4)C3)cc2)CC1
12.6

Recorded IC50 for CCC(C)(C)C(=O)N1CCC(Oc2ccc(NC(=O)C3CN(c4cccnc4)C3)cc2)CC1 , please?
42.8

====

Test system: PC3 cells
Assay: NAMPT Cell Proliferation Assay (Cell Titer Glo; also performed in the presence of 0.3 mM nicotinamide mononucleotide)
Assay type: cell-based
Conditions: Homo sapiens, PC-3, 120 h, 5 days incubation, cell viability by Cell Titer Glo
Reported endpoint: IC50 (nM)
Reply with just the number (in nM).

Example results:
Fill in: IC50 of Cc1ccccc1C(=O)N1CCC(Cc2ccc(NC(=O)C3CN(c4cccnn4)C3)cc2)CC1 is ___
2.14

Param item = O=C(Nc1ccc(CC2CCN(C(=O)c3ccn[nH]3)CC2)cc1)C1CN(c2cccnn2)C1 ; retrieve measured IC50.
8.75

Using the record for CCOCC(=O)N1CCC(Cc2ccc(NC(=O)C3CN(c4cccnn4)C3)cc2)CC1 , report its IC50.
2.89

More entries:
IC50 for CC(C)CC(=O)N1CCC(Cc2ccc(NC(=O)C3CN(c4cccnn4)C3)cc2)CC1 ?
3.23

====

Tested on: PC3 cells
Assay: NAMPT Cell Proliferation Assay (Cell Titer Glo; also performed in the presence of 0.3 mM nicotinamide mononucleotide)
Format: cell-based
Conditions: Homo sapiens, PC-3, 120 h, 5 days incubation, cell viability by Cell Titer Glo
Quick list: IC50 per entry.

// below: answered compounds
Looking for the measured IC50 of O=C(Nc1ccc(CC2CCN(C(=O)CC3C[C@@H]4CC[C@H]3C4)CC2)cc1)C1CN(c2cccnn2)C1 (some centres unmarked) , can you help?
0.00239 µM

I would be grateful if you could share the reported IC50 for CC1(Cn2cc(-c3ccc(NC(=O)C4CN(c5cccnn5)C4)cc3)cn2)CCNCC1 .
0.675 µM

Name the reported IC50 value associated with the compound Cc1ccc(N2CC(C(=O)Nc3ccc(O[C@@H]4CCN(C(=O)CC(C)C)C4)cc3)C2)nn1
0.139 µM

Looking for the measured IC50 of Nc1ncccc1C(=O)N1CCC(c2ccc(NC(=O)C3CN(c4cccnn4)C3)cc2)CC1 , can you help?
0.00651 µM

IC50 lookup needed for O=C(N[C@H]1CCN(c2cccnn2)C1)c1ccc(C2CCN(C(=O)CC(F)(F)F)CC2)s1 , thanks.
0.752 µM

Further cases:
What value of measured IC50 is listed for CC1(Cn2cc(-c3ccc(NC(=O)C4CN(c5cccnn5)C4)cn3)cn2)CCNCC1 ?
0.602 µM

====

So I've got log10 of IC50 readings for NAMPT (Homo sapiens), take a look.
A value of 2 here means IC50 of 100 in nM, since values are log10.

// worked examples, log10 of IC50 included
Under NAMPT (Homo sapiens): log10 of IC50 value of CC(C)C(=O)N1CCC(c2ccc(NC(=O)C3CN(c4cccnc4)C3)cc2)CC1 ?
-0.57

Please tell me: log10 of IC50 of CC(C)(C(=O)N1CCC(Oc2ccc(NC(=O)C3CN(c4ccnnc4)C3)cc2)CC1)c1ccccc1 , system NAMPT (Homo sapiens)?
1.17

Find log10 of IC50 (NAMPT (Homo sapiens)) for the entry CC(C)(C)CC(=O)N1CCC(Oc2ccc(NC(=O)C3CN(c4cccnc4)C3)cc2)CC1
-0.11

Hi! What's the reported log10 of IC50 for Cc1ncccc1N1CC(C(=O)Nc2ccc(C3CCN(C(=O)C4(C)CC4)CC3)cc2)C1 on NAMPT (Homo sapiens)?
1.95

# returns recorded log10 of IC50 (system: NAMPT (Homo sapiens)) for CC(C)(O)C(=O)N1CCC(Oc2ccc(NC(=O)[C@H]3CCN(c4cccnc4)C3)cc2)CC1
0.37

log10 of IC50 of Cc1ccc(C(=O)N2CCC(c3ccc(NC(=O)C4CN(c5cccnn5)C4)cc3)CC2)s1 on NAMPT (Homo sapiens)?
-0.20

New cases:
Request: log10 of IC50, test system NAMPT (Homo sapiens), entry O=C(Nc1ccc(OC2CCN(C(=O)c3cccc(OC(F)(F)F)c3)CC2)cc1)C1CN(c2ccnnc2)C1
1.81

I'm curious: which log10 of IC50 was measured for CC(C)C(C)C(=O)N1CCC(Oc2ccc(NC(=O)C3CN(c4cccnc4)C3)cc2)CC1 (centres unmarked) tested on NAMPT (Homo sapiens)?
-0.13
